Form field: fractional inhibitory concentration index (FICI) (one value per entry).
Test system: Pseudomonas aeruginosa PAO1
Assay: Inhibition of RND efflux pump in Pseudomonas aeruginosa PAO1 assessed as potentiation of minocycline-induced antibacterial activity at 8 ug/ml after 18 to 24 hrs by checker board assay
Readout label: fractional inhibitory concentration index (FICI)

[
  {
    "Molecular string": "NC[C@@H]1CN[C@@H](C(=O)N[C@H](CCc2ccccc2)C(=O)Nc2ccc3ccccc3c2)C1",
    "Numeric value": 0.13
  },
  {
    "Molecular string": "Cl.Cl.Cl.Cl.Cl.Cl.NC[C@H]1O[C@H](O[C@H]2[C@H](OCCCCCCCCCCCCN3CC[C@@H](c4ccc(F)cc4)[C@H](COc4ccc5c(c4)OCO5)C3)[C@@H](O[C@H]3O[C@H](CO)[C@@H](O)[C@H](N)[C@H]3O)[C@H](N)C[C@@H]2N)[C@H](N)C[C@@H]1O",
    "Numeric value": 0.19
  }
]

====

Tested on: Pseudomonas aeruginosa
Assay: Antibacterial activity against Pseudomonas aeruginosa PAO1 after 18 to 24 hrs by microbroth dilution assay
Type: functional
Form field: MIC (one value per entry).
Readout label: MIC (µg/mL)

[
  {
    "Compound": "Fc1ccc([C@@H]2CCNC[C@H]2COc2ccc3c(c2)OCO3)cc1 [PAROXETINE]",
    "System": "Pseudomonas aeruginosa",
    "Readout label": "MIC",
    "Numeric value": 512
  },
  {
    "Compound": "Cl.Cl.Cl.Cl.Cl.Cl.Cl.NC[C@H]1O[C@H](O[C@H]2[C@H](OCCN3CCN(Cc4cccc5ccccc45)CC3)[C@@H](O[C@H]3O[C@H](CO)[C@@H](O)[C@H](N)[C@H]3O)[C@H](N)C[C@@H]2N)[C@H](N)C[C@@H]1O",
    "System": "Pseudomonas aeruginosa",
    "Readout label": "MIC",
    "Numeric value": 128
  },
  {
    "Compound": "NC[C@H]1C[C@H](C(=O)N[C@H](CCc2ccccc2)C(=O)Nc2ccc3ccccc3c2)N(CCCCCCCCCCCCO[C@@H]2[C@@H](O[C@H]3O[C@H](CO)[C@@H](O)[C@H](N)[C@H]3O)[C@H](N)C[C@H](N)[C@H]2O[C@H]2O[C@H](CN)[C@@H](O)C[C@H]2N)C1",
    "System": "Pseudomonas aeruginosa",
    "Readout label": "MIC",
    "Numeric value": 32
  }
]

====

Form field: fractional inhibitory concentration index (FICI) (one value per entry).
Tested on: Enterobacter cloacae
Test: Inhibition of RND efflux pump in Enterobacter cloacae isolate 117029 assessed as potentiation of minocycline-induced antibacterial activity at 8 ug/ml after 18 to 24 hrs by microbroth dilution assay
Readout label: fractional inhibitory concentration index (FICI)

[
  {
    "Molecular string": "NC[C@H]1C[C@H](C(=O)N[C@H](CCc2ccccc2)C(=O)Nc2ccc3ccccc3c2)N(CCCCCCCCCCCCO[C@@H]2[C@@H](O[C@H]3O[C@H](CO)[C@@H](O)[C@H](N)[C@H]3O)[C@H](N)C[C@H](N)[C@H]2O[C@H]2O[C@H](CN)[C@@H](O)C[C@H]2N)C1",
    "Lt gt eq": "=",
    "Numeric value": 0.13
  },
  {
    "Molecular string": "Fc1ccc([C@@H]2CCNC[C@H]2COc2ccc3c(c2)OCO3)cc1",
    "Lt gt eq": "=",
    "Numeric value": 0.5
  },
  {
    "Molecular string": "c1ccc2c(CN3CCNCC3)cccc2c1",
    "Lt gt eq": ">",
    "Numeric value": 0.5
  }
]
